Each recorded value in this set is attributed to ChEMBL document CHEMBL4002610.

tested on: Bacillus subtilis; test: Inhibition of FtsZ in Bacillus subtilis ATCC 9372 assessed as decrease in cell division by measuring lowest compound concentration at which bacterial filamentation is observed after 5 hrs by phase-contrast light microscopy
Please provide measured log10 of INH for the entries that follow.
A value of 2 here means INH of 100 in µg/mL, since values are log10.

Reported log10 of INH (Bacillus subtilis) for entry `NC(=O)c1c(F)ccc(OCCn2cnc3cc([N+](=O)[O-])ccc32)c1F` is 1.51

For the compound `NC(=O)c1c(F)ccc(OCCCn2cnc3cc([N+](=O)[O-])ccc32)c1F` , the measured log10 of INH on Bacillus subtilis was 2.11

Hey, Bacillus subtilis data for `CCOC(=O)COc1ccc(F)c(C(N)=O)c1F` : log10 of INH came out at 1.51

Short answer on Bacillus subtilis for `NC(=O)c1c(F)ccc(OC2CCCCC2)c1F` , log10 of INH: 1.81

// log10 of INH (Bacillus subtilis) for COc1cc(/C=C/C(=O)CC(=O)/C=C/c2ccc(O)c(OC)c2)ccc1O [CURCUMIN] = 1.20

Item `CC(C)Oc1ccc(F)c(C(N)=O)c1F` was tested on Bacillus subtilis; the reported log10 of INH is 2.11

The measured log10 of INH that `NC(=O)c1c(F)ccc(OCCCBr)c1F` showed for Bacillus subtilis is 1.20

The reported Bacillus subtilis log10 of INH of CCC(C)Oc1ccc(F)c(C(N)=O)c1F (configuration not stated) is 2.11

`NC(=O)c1c(F)ccc(OCCBr)c1F` tested on Bacillus subtilis gave log10 of INH: 0.30

Observed log10 of INH on Bacillus subtilis, entry `CC(C)COc1ccc(F)c(C(N)=O)c1F` , equals 1.51

// log10 of INH (Bacillus subtilis) for `NC(=O)c1c(F)ccc(OCCCCl)c1F` = 1.20

Entry `NC(=O)c1c(F)ccc(OCc2nc3cc([N+](=O)[O-])ccc3[nH]2)c1F` under Bacillus subtilis had log10 of INH of 1.81

* * *

molecular target: Cell division protein FtsZ (Staphylococcus aureus); assay: Inhibition of FtsZ in Staphylococcus aureus ATCC 25923 assessed as decrease in cell division by measuring lowest compound concentration at which bacterial ballooning is observed after 5 hrs by phase-contrast light microscopy
quantity.kind: log10 INH (log10 of the value in µg/mL)
Field: value | Transform: log10 | Quantity: INH | Unit: µg/mL

Note to self: log10 INH of `NC(=O)c1c(F)ccc(OCCCCBr)c1F` with Cell division protein FtsZ (Staphylococcus aureus) was 0.60

Fill in: Cell division protein FtsZ (Staphylococcus aureus) log10 INH for `NC(=O)c1c(F)ccc(OCCCn2cnc3ccccc32)c1F` = 2.41

Entry `NC(=O)c1c(F)ccc(OCc2nc3ccccc3[nH]2)c1F` , Cell division protein FtsZ (Staphylococcus aureus) data, log10 INH value: 2.71

Item: `NC(=O)c1c(F)ccc(OC2CCCC2)c1F` | System: Cell division protein FtsZ (Staphylococcus aureus) | log10 INH: 2.41

Noted log10 INH for `NC(=O)c1c(F)ccc(OCCCCn2cnc3cc([N+](=O)[O-])ccc32)c1F` , tested on Cell division protein FtsZ (Staphylococcus aureus): 2.71

# log10 INH measured on Cell division protein FtsZ (Staphylococcus aureus) for item `NC(=O)c1c(F)ccc(OC2CCCCC2)c1F` = 2.11

# `CC(C)CCOc1ccc(F)c(C(N)=O)c1F` with Cell division protein FtsZ (Staphylococcus aureus): log10 INH is 0.60

Note to self: log10 INH of `NC(=O)c1c(F)ccc(O)c1F` with Cell division protein FtsZ (Staphylococcus aureus) was 3.31

The recorded log10 INH with Cell division protein FtsZ (Staphylococcus aureus) for `NC(=O)c1c(F)ccc(OCCCCCBr)c1F` was 0.60

Fill in: Cell division protein FtsZ (Staphylococcus aureus) log10 INH for `NC(=O)c1c(F)ccc(OCCCBr)c1F` = 1.20

For the compound `NC(=O)c1c(F)ccc(OCCCCCCCl)c1F` , the measured log10 INH on Cell division protein FtsZ (Staphylococcus aureus) was -0.30

Readout log10 INH for `CCOCCC(=O)COc1ccc(F)c(C(N)=O)c1F` , test system Cell division protein FtsZ (Staphylococcus aureus), was 2.11

Field log10 INH (Cell division protein FtsZ (Staphylococcus aureus)), entry `CC(C)Oc1ccc(F)c(C(N)=O)c1F` : 2.11

The reported log10 INH value, Cell division protein FtsZ (Staphylococcus aureus), for `NC(=O)c1c(F)ccc(OCCCCCCn2cnc3ccccc32)c1F` reads 2.11

`NC(=O)c1c(F)ccc(OCc2nc3cc([N+](=O)[O-])ccc3[nH]2)c1F` tested on Cell division protein FtsZ (Staphylococcus aureus) gave log10 INH: 2.11

* * *

biological target: UniProt P0A031; assay: Inhibition of FtsZ in Staphylococcus aureus ATCC 25923 assessed as decrease in cell division by measuring cell morphology at 2048 to 4096 ug/ml after 5 hrs by phase-contrast light microscopy
Sequence (P0A031 whole entry): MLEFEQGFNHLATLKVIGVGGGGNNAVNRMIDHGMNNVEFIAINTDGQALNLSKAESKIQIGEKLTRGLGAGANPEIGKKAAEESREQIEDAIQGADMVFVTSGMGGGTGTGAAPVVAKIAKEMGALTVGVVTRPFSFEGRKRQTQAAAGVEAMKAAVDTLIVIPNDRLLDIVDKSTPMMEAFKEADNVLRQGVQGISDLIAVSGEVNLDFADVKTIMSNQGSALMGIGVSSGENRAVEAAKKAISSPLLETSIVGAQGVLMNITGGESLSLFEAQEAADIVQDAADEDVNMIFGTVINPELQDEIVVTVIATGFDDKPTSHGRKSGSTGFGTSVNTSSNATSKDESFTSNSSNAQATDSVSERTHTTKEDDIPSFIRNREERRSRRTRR
Active and inactive are the calls of the source. The calls are words filed in the database; no cut-off is given here.
quantity.kind: inhibition

Some entries whose results are on file:
# smiles.structure, inhibition
rows = [
    ("NC(=O)c1c(F)ccc(OCCCCn2cnc3ccccc32)c1F", "inactive"),
    ("NC(=O)c1c(F)ccc(OCCCCn2cnc3cc([N+](=O)[O-])ccc32)c1F", "inactive"),
    ("NC(=O)c1c(F)ccc(OCCCCCn2cnc3ccccc32)c1F", "inactive"),
    ("NC(=O)c1c(F)ccc(OCCCCCCn2cnc3cc([N+](=O)[O-])ccc32)c1F", "inactive"),
]

Now examine the next entry.
Documented inhibition of `NC(=O)c1c(F)ccc(OCCn2cnc3ccccc32)c1F` : inactive

* * *

Assign INH to each entry below.
system: Escherichia coli ATCC 25922; assay: Inhibition of FtsZ in Escherichia coli ATCC 25922 assessed as decrease in cell division by measuring lowest compound concentration at which bacterial filamentation is observed after 5 hrs by phase-contrast light microscopy
Express the result in µg/mL but write the number alone.

Please fill in: INH reported for `NC(=O)c1c(F)ccc(OCc2nc3cc([N+](=O)[O-])ccc3[nH]2)c1F` = 128

The recorded INH for entry `NC(=O)c1c(F)ccc(OCCCn2cnc3ccccc32)c1F` equals 512

For this compound ( CCCCC(CC)COc1ccc(F)c(C(N)=O)c1F (stereo not given) ), measured INH is 64

Reported INH for `CC(C)COc1ccc(F)c(C(N)=O)c1F` was 64

INH recorded for this compound, `NC(=O)c1c(F)ccc(OCCn2cnc3cc([N+](=O)[O-])ccc32)c1F` , is 128

Sample `NC(=O)c1c(F)ccc(OCCCCCn2cnc3cc([N+](=O)[O-])ccc32)c1F` ; INH observed: 256

// sample `NC(=O)c1c(F)ccc(OC2CCCCC2)c1F` , its INH was 64

Value of INH reported for the compound `NC(=O)c1c(F)ccc(OCCCCCCn2cnc3cc([N+](=O)[O-])ccc32)c1F` is 256

The compound `NC(=O)c1c(F)ccc(OCCCn2cnc3cc([N+](=O)[O-])ccc32)c1F` showed INH equal to 512

Recorded INH (compound `CC(C)CCOc1ccc(F)c(C(N)=O)c1F` ): 64

Short answer for `NC(=O)c1c(F)ccc(OCCCCCCCl)c1F` : INH was 128

Entry `NC(=O)c1c(F)ccc(OCc2nc3ccccc3[nH]2)c1F` , INH reported as 128

Per the record, `CCOC(=O)COc1ccc(F)c(C(N)=O)c1F` has INH of 64

The compound listed as `NC(=O)c1c(F)ccc(OCCBr)c1F` shows INH equal to 32

Please fill in: INH reported for `NC(=O)c1c(F)ccc(OCCCCCCl)c1F` = 64

Please fill in: INH reported for CCC(C)Oc1ccc(F)c(C(N)=O)c1F (stereo not given) = 64

// INH value for `NC(=O)c1c(F)ccc(OCCCCCl)c1F` : 64

Input `NC(=O)c1c(F)ccc(OCCCBr)c1F` . Output INH: 64

In plain terms, `CC(C)Oc1ccc(F)c(C(N)=O)c1F` has a documented INH of 64

Record `NC(=O)c1c(F)ccc(OCCCCCCBr)c1F` , field INH: 64

Briefly, INH measured for `NC(=O)c1c(F)ccc(OCCCCCCn2cnc3ccccc32)c1F` : 256

# compound `COc1cc(/C=C/C(=O)CC(=O)/C=C/c2ccc(O)c(OC)c2)ccc1O` ; its INH = 256

INH recorded for this compound, `NC(=O)c1c(F)ccc(OCCCCl)c1F` , is 64

INH reported for this compound `NC(=O)c1c(F)ccc(OCCCCn2cnc3ccccc32)c1F` : 512

Entry under test: `NC(=O)c1c(F)ccc(OC2CCCC2)c1F` . Its INH was 64

* * *

tested on: Escherichia coli ATCC 25922; test: Inhibition of FtsZ in Escherichia coli ATCC 25922 assessed as decrease in cell division by measuring lowest compound concentration at which bacterial filamentation is observed after 5 hrs by phase-contrast light microscopy
quantity.kind: INH (µg/mL)
Answer in µg/mL, number only, no unit symbol.

Per the records, this compound ( `NC(=O)c1c(F)ccc(OCCCCCBr)c1F` ) has INH equal to 64

// INH value for `NC(=O)c1c(F)ccc(OCCCCn2cnc3cc([N+](=O)[O-])ccc32)c1F` : 256

get_value(item= `NC(=O)c1c(F)ccc(OCCCCBr)c1F` , readout=INH) returns 64

Just so you know, measured INH for `NC(=O)c1c(F)ccc(OCCn2cnc3ccccc32)c1F` came out at 256

What the record says about `NC(=O)c1c(F)ccc(OCCCCCn2cnc3ccccc32)c1F` : INH is 512

// recorded INH for `CCOCCC(=O)COc1ccc(F)c(C(N)=O)c1F` : 64

The recorded INH for entry `NC(=O)c1c(F)ccc(O)c1F` equals 512
